B1: tRNA (parent)
chain: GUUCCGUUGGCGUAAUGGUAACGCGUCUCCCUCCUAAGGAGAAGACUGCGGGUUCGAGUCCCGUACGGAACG

# Variants of: B1
# experiment: yeast fitness relative to wild type (ratio to wild type); higher = fitter; tRNA-Arg(CCU), competitive growth, 37 C, YPD
Variants at the floor of the assay were thinned out.
Collected yeast fitness values appear next to each entry.

{"columns": ["sequence.input", "relation", "yeast fitness"],
 "data": [
  ["GGUCCGUUGGCAAAAUGGUAACGCCUCACCCUACUAAGGAGAAGACUGCGGGUUCGAGUCCCCCAUGGAACG [U2G G12A U13A G25C U28A C33A G63C U64C C66U]", "≤", 0.5],
  ["GUUCUGUUGGCGUAAUGGUAACGCGUCUCCCUCCUAAGGAGACGACUGCGGGUUCGAGUCCCGUACGGAACG [C5U A43C]", "=", 0.813],
  ["GUUCCGUUGGCGUAAUGGUAACGCGUCUCCCUCCUAACGAGAAGACUGCGGGUUCGAGUACCGUACGGAGCG [G38C C60A A70G]", "=", 0.582],
  ["GUAUCGAUGGCAUAAUGGUAACGCGUCUCGCUCCUAAGGAGAAGACUGCGGGUUCGAGUCCCGUACGGAACG [U3A C4U U7A G12A C30G]", "≤", 0.5],
  ["GUUCCGUUGGCGUAAUGGUAAGGCGUCUCCCUCCUAAGGAGAAGACUGGGGGUUCGAGUCCCGUACGGUACG [C22G C49G A69U]", "=", 0.634],
  ["GUUGCGUUGGCGUAAUGGUAACGCGUCUCCCUGCUAAGGAGAAGACUGCGGGUUCGAGUCCCGUUCGGAACG [C4G C33G A65U]", "=", 0.605],
  ["GUUCCGUUGGCGUAAUGGUAACGCGUCUUCCUCCUAAGGAGAAGACUGCGGGUUCGAGUCCCGUACUGUACG [C29U G67U A69U]", "≤", 0.5],
  ["GUUCCGUUGGAGUAAUGGGAACGCGUCUCCCUCCUAAGGAGAAGACUGCGGGUUCGAGUCCCGUACGGAACG [C11A U19G]", "=", 0.669],
  ["GUUCCGUUGGCGUAAUGGAAACGCGUUUCCCUCCUAAGGAGAAGUCUGCGGGUUCGAGUCCAGUACGGAACG [U19A C27U A45U C62A]", "≤", 0.5],
  ["GUUCCGUUGGCGUAAUGGUAACGUGCCUCCCUCCUAAGGAGAAGACUGCGGGUUCGUGUCCCGUACGGAACG [C24U U26C A57U]", "≤", 0.5],
  ["GUUCCGUUGGCGUAAUGGUAACGCGUCUCCCUUCUAAGGAGCAGACUGCGGGUUCGAGUCCCGUACGGAACG [C33U A42C]", "=", 0.63],
  ["GUUCCGUUGGCGUAAUGGUAACGCGUCUCCUUCCUAAGGAGAAGACUGCGGGUUCGAGUCUCGUACGCAACG [C31U C61U G68C]", "≤", 0.5],
  ["GUUCCGUUAGCGUAAUGGUAACGCGUCUUCCUCCUAAGGAGAAGAUUGCGGGUUCGAGUCCCGUACCGAACG [G9A C29U C46U G67C]", "=", 0.583],
  ["GUUCUGUUGGUGUAAUGGUAACGCGUCGCCCUCCUAAGGCGAAGACUGCGGGUUCGAGUCCCGUACGGAACG [C5U C11U U28G A40C]", "=", 1.13],
  ["GUUCCGUUGGCGUACUGGUAACCCGUCUCCCUCCUAAGGAGAAGACUGCGGGUUAGAGUCCCGUGCGGAACG [A15C G23C C55A A65G]", "≤", 0.5],
  ["GUUCCGUUGGCGUGAUGGUCACGCGUCUCUCUCCUAAGGAGAAGACUGCGGGUUCGAGUCCCGUAUGGAACG [A14G A20C C30U C66U]", "≤", 0.5],
  ["GUUCCGUGGGCGUAAUGGUAACGGGUCUCCCUCCUAAGGAGAAGACUGCGGGUUAGAGUCCCGUUCGGAACG [U8G C24G C55A A65U]", "≤", 0.5],
  ["GUUCCAUUGGCGUAAUGGUAACGCGUCUCCCUCCUAAGGAGACGACUGCGGGUUCGAGUCCAGUACGGAACG [G6A A43C C62A]", "=", 0.551],
  ["GUUCCGUUGGCGUAAUGGUAACGCGUCUCCCUCUUAAGGAGAAGACUGCGGGUUCGAGUCCCGUACGGAUCG [C34U A70U]", "=", 0.662],
  ["GUACCGUUGGCGUAAUGGUAACGCGUCUCCCUCCUAAGGGGAAGACUGCGGGAUCGAGUCCCGUACGGAACG [U3A A40G U53A]", "≤", 0.5],
  ["GUUCCGUUGGCAUAAUCGUAACGCGUCUCCCUCCUAAGGAGAAGACUGCGGGUUCGAAUCCCGUACGGAGCG [G12A G17C G58A A70G]", "≤", 0.5],
  ["GUUCCGUUGGCGUAACGGUAACGCGUCUCCCGCGUAAGGAGAAGACUGCGGGAUCGAGUCCCCUACGGAACG [U16C U32G C34G U53A G63C]", "≤", 0.5],
  ["GUUCCGUUGGCGCAAUGGUAACGCGUCUCCCUCCUAAGGAGAAGACUGCGGGUUCGAGUCCCGUACCGAACG [U13C G67C]", "=", 0.771],
  ["GUUCCGUUGGCGUAAUGGUAUCGCGUCUCCCUCCUAAGGAGAAGACUGCGGGUUGGAGUAGCGUAGGGAACG [A21U C55G C60A C61G C66G]", "≤", 0.5],
  ["GUUCCGUUGGCGUAAUGGUAACGCGUCUCCUUCCUAAGGAGAAGACUGCGGGUUCGAGUCCCGUACGGAUCG [C31U A70U]", "=", 1.04],
  ["GUUCCGUUGGCGUAAUGGUAACGCGUCUCCCUCCUAAGGAGAAGACUGCGGGUUCGGGUACCGUAGGGAACG [A57G C60A C66G]", "=", 0.558],
  ["GUUCCGUUGGCGUAAUGAUAACGCGUCUCCCUCCUAAGGAGAAGACUGCGCGUUCGAGUCCCGUACGGAACG [G18A G51C]", "≤", 0.5],
  ["GUUCCGUUGGCGUAAUGGUAACGCGUCUCCCUUCUAAGGAGAAGACUGGGGGUUCGAGUGCGAUACGGAACG [C33U C49G C60G C62G G63A]", "≤", 0.5],
  ["GUUCUGAUGGCGUAAUGGUAACGCGUCUCCCUCCUAAGGAGAAGACUGCGGGUUCGAGUCCAGUACGGGGCG [C5U U7A C62A A69G A70G]", "≤", 0.5],
  ["GUUCGGUUGACGUAAUGGUAAUGCGUCUCCCUCCUACGGAGAAGACUGCGGGUUCAAGUCCCGUACGGAACG [C5G G10A C22U A37C G56A]", "≤", 0.5],
  ["GUUCCGUUGGCGUAACGGUAAUGCGUCUCCCUGCUAAGGAGAAGACUGCGGGUUGGAGUCCCGUACGGAACG [U16C C22U C33G C55G]", "=", 0.53],
  ["GUUCUGUUGACGUUAUGGUAACGCGUCUCCAUCCUAAGGAGAAGAAUGCGGGUUCGAGUCCCGUUCGGAACG [C5U G10A A14U C31A C46A A65U]", "≤", 0.5],
  ["GUUCCGUUCGCGUAAUGGUAACGCGUCUCCCUCCAAAGGAGAUGACUGCGGGUUCGAGUCCCGUACGGAACG [G9C U35A A43U]", "≤", 0.5],
  ["GUUCCGUUGGCGUCAUGGUAGCGCGUCUCCCUCCUAAGGAGAAGACUGCGGGUUCGAGUCCCGUACGGAACG [A14C A21G]", "=", 0.713],
  ["GUUCCGGUGGCGUAAUGGUAACGCGUCUUCCUCCUAAGGAGAAGACUGCGGGUUCGAGUCCCGUACGGAACG [U7G C29U]", "=", 0.775],
  ["GUUCCGUUGGCGUAAUGGUAACGCGUCUCUCUCCAAAGGAGAAGACUGCGGGUUCGAGUCCAGUACGGAACG [C30U U35A C62A]", "≤", 0.5],
  ["GUUCCGUUAGCGUAAUGGUAACGCGUCUCCCUCCUAAGGAGAAGCCUGUGGGUUCGAGUCCCGUACGGAACG [G9A A45C C49U]", "=", 0.643],
  ["GUUCCGUUGGCGUAAUGGUAACGCGUCUCUCUCCUAAGGAGAAGACUGCGGGUUCGUGUCCCGUACGGAACG [C30U A57U]", "=", 0.863],
  ["GUUCAGUCGACGUAAUGGUAGCGCGUCUCCCUCCUAAGGAGAAGCCUGCGGGUUCCAGUCCCGUACGGAACG [C5A U8C G10A A21G A45C G56C]", "≤", 0.5],
  ["GUUCCCUCGGCGUAAUGGUAACGCGUCUCCCUCCUAAGGACAAGACUGCGCGUUCGAGUCCCGUACGGAACG [G6C U8C G41C G51C]", "≤", 0.5],
  ["GUUCCAUUGGCGUAAUGGUAACGCGUCUCCCUCCUAAGGCCAAGACUGCGGGUUCGAGUCCCGUACGCAACG [G6A A40C G41C G68C]", "≤", 0.5],
  ["GUUCUGUUGGCGUAAUGGUAACGCGUCUCCAUCCUAAGGGGAAGACUGCGGGUUCGAGUCUCGUUCGGAACG [C5U C31A A40G C61U A65U]", "≤", 0.5],
  ["GUUCCGUUGGCGUAAUGGUAACGCGUCUCCCUCCUAAGGAGAAGGCUACGGGUUCCAGUGCCGUACGGAACG [A45G G48A G56C C60G]", "≤", 0.5],
  ["GUUCAGUUCGCGUAAUGGUAACGCGUCUCCCUCCUUAGGAGAAGACUGCAGGUUCGAGGCCCGUACGGAACG [C5A G9C A36U G50A U59G]", "=", 0.542],
  ["GUUCCGUUGGCGAAAUGGUAAAGCGUCUCCCUCCUUAGGAGAAGACUGCGGGUUCGAGUCCCGUGCGGAACG [U13A C22A A36U A65G]", "≤", 0.5],
  ["GUUCUGUUGGCGUAAUGGUAACGCGUCUCCCUCCUAAGGAGAAGACUGCCGGUUCGAGUCCCGUACAGAACG [C5U G50C G67A]", "≤", 0.5]
]}
